test system: NCI-H522; assay: NCI tumour cell line growth inhibition, 48 h
Active and inactive are the calls of the source. Cut-off read from the data, not from the text of the source: active = GI50 up to about 1.1 µM and inactive = higher.
Classes used: active, inactive

- COMPOUND: "COc1ccc2c(c1)Oc1cc(O)ccc1[C@H]2c1ccccc1C(=O)NC(C)c1ccccc1 (stereo partly drawn)"
  SYSTEM TESTED: "NCI-H522"
  GROUP LABEL: "inactive"
- COMPOUND: "Cc1ccc2c(c1)CNc1ccc(C)cc1CN2"
  SYSTEM TESTED: "NCI-H522"
  GROUP LABEL: "inactive"
- COMPOUND: "CSC1=NN=C(SC)NN1"
  SYSTEM TESTED: "NCI-H522"
  GROUP LABEL: "active"

----------
system: UACC-257; assay: NCI tumour cell line growth inhibition, 48 h
Active and inactive are the calls of the source. Cut-off read from the data, not from the text of the source: active = GI50 up to about 1.1 µM and inactive = higher.
Classes used: yes (1) for active, no (0) for inactive

- MOLECULE: "CCc1cccc(C(C)C)c1NC(=O)C(=O)C(C(=O)C(=O)OC)c1nc2ccccc2nc1O (stereo unspecified)"
  GROUP LABEL: "no (0)"
- MOLECULE: "CCOC(=O)/C(C#N)=C1\\c2c([nH]c(=S)[nH]c2=O)Oc2ccc3ccccc3c21"
  GROUP LABEL: "no (0)"
- MOLECULE: "CCOC(=O)CC(C)C1(C=O)CCCCC1=O (stereo unspecified)"
  GROUP LABEL: "no (0)"
- MOLECULE: "Oc1ccc2ccccc2c1/N=N/c1ccccc1"
  GROUP LABEL: "no (0)"
- MOLECULE: "C=CCN1COc2c(cc3c4c(cccc24)C(=O)O3)C1"
  GROUP LABEL: "no (0)"
- MOLECULE: "CC(=O)c1cc2c(s1)C(=O)c1ccsc1C2=O"
  GROUP LABEL: "yes (1)"
- MOLECULE: "CCOc1cc(C2SCC(=O)N2c2ccc(Oc3ccc(Cl)cc3)c(Cl)c2)ccc1O (stereo unspecified)"
  GROUP LABEL: "no (0)"
- MOLECULE: "CCOC(=O)c1nc2c(Cl)c3ncccc3cc2[nH]c1=O"
  GROUP LABEL: "no (0)"
- MOLECULE: "CCCCNCC(=O)O[C@]1(CC)C(=O)OCc2c1cc1n(c2=O)Cc2cc3ccccc3nc2-1"
  GROUP LABEL: "yes (1)"
- MOLECULE: "COc1cc(/C=C2\\CC3C4CC[C@H]5C[C@@H](O)CC[C@]5(C)C4CC[C@]3(C)C2=O)cc(OC)c1OC (stereo partly specified)"
  GROUP LABEL: "no (0)"
- MOLECULE: "CC1=C2[C@@H](c3ccccc3)C3C=CC2(c2ccccc23)N(C(=O)Nc2cccc3ccccc23)C1=O (stereo partly specified)"
  GROUP LABEL: "no (0)"

----------
tested on: HCC 2998; test: NCI tumour cell line growth inhibition, 48 h
Activity calls are given as the source filed them. Rule as the data show it: active = GI50 up to about 1.1 µM and inactive = higher.
Classes used: class 1 (active), class 0 (inactive)

- MOLECULE: "O=c1ccn([C@@H]2O[C@H](CO)[C@@H](O)[C@H]2F)c(=O)[nH]1"
  GROUP LABEL: "class 0"
- MOLECULE: "O=C(O)CCC(=O)Oc1ccc(O)c2c1CCCC2=O"
  GROUP LABEL: "class 0"
- MOLECULE: "O=C(N/N=C/c1cc(Br)cc(Br)c1O)c1ccccc1O"
  GROUP LABEL: "class 1"
- MOLECULE: "O=C(Oc1ccc2c(c1)CN(Cc1ccccc1)CO2)c1ccccc1"
  GROUP LABEL: "class 0"
- MOLECULE: "CC(=O)O[C@H]1CCC2[C@@H]3CCC4Nc5[nH]ncc5C[C@]4(C)C3CC[C@@]21C (stereo not given in full)"
  GROUP LABEL: "class 0"
- MOLECULE: "CCOC(=O)c1cc2c([nH]1)c(OC(C)=O)cc1c2ccn1Cc1ccccc1"
  GROUP LABEL: "class 0"
- MOLECULE: "CC1(C)[N+]([O-])=[N+]([O-])C1(C)O (stereo not given)"
  GROUP LABEL: "class 0"
- MOLECULE: "COc1ccc2nc(-c3ccc(O)cc3)ccc2c1"
  GROUP LABEL: "class 0"
- MOLECULE: "CCCC(=O)N[C@H]1C2C3CC4C5CC(C42)C1(C)C53 (stereo not given in full)"
  GROUP LABEL: "class 0"
- MOLECULE: "CCOC(=O)N1CCN(P(=O)(Nc2ccc3[nH]c(NC(=O)OC)nc3c2)Oc2ccccc2)CC1 (stereo not given)"
  GROUP LABEL: "class 0"
